# ASSAY_SUMMARY: Pharmacokinetic study
# Assay type: in vivo, BALB/c mice
# ASSAY_CONDITIONS: BALB/c, mouse, plasma, iv, 10 mg/kg
MEASUREMENT_NAME: Cmax (ng/mL)

INSERT INTO assay_data (given_smiles, measurement_name, test_result) VALUES
  ('COc1cccc2c1C(=O)c1c(O)c3c(c(O)c1C2=O)C[C@@](O)(C(=O)CO)C[C@@H]3O[C@H]1C[C@H](N)[C@H](O)[C@H](C)O1', 'Cmax', 911);

###

# ASSAY_SUMMARY: Pharmacokinetic study
# Type: in vivo, BALB/c mice
# ASSAY_CONDITIONS: BALB/c, mouse, plasma, iv, 10 mg/kg
MEASUREMENT_NAME: MRT inf (h)

INSERT INTO measurements (given_smiles, test_result) VALUES
  ('COc1cccc2c1C(=O)c1c(O)c3c(c(O)c1C2=O)C[C@@](O)(C(=O)CO)C[C@@H]3O[C@H]1C[C@H](N)[C@H](O)[C@H](C)O1', 18.2);

###

# ASSAY_SUMMARY: Pharmacokinetic study
# Type: in vivo, BALB/c mice
# ASSAY_CONDITIONS: BALB/c, mouse, plasma, iv, 10 mg/kg
MEASUREMENT_NAME: Vd (L/kg)

INSERT INTO results (given_smiles, measurement_name, measure_unit, test_result) VALUES
  ('COc1cccc2c1C(=O)c1c(O)c3c(c(O)c1C2=O)C[C@@](O)(C(=O)CO)C[C@@H]3O[C@H]1C[C@H](N)[C@H](O)[C@H](C)O1', 'Vd', 'L/kg', 61.9);

###

# ASSAY_SUMMARY: Pharmacokinetic study
# Assay type: in vivo, BALB/c mice
# ASSAY_CONDITIONS: BALB/c, mouse, plasma, iv, 10 mg/kg
MEASUREMENT_NAME: half-life

INSERT INTO results (compound, measurement_name, test_result) VALUES
  ('COc1cccc2c1C(=O)c1c(O)c3c(c(O)c1C2=O)C[C@@](O)(C(=O)CO)C[C@@H]3O[C@H]1C[C@H](N)[C@H](O)[C@H](C)O1 [DOX]', 'half-life', '17.9 h');

###

# ASSAY_SUMMARY: Pharmacokinetic study
# Format: in vivo, BALB/c mice
# ASSAY_CONDITIONS: BALB/c, mouse, plasma, iv, 10 mg/kg
MEASUREMENT_NAME: MRT last (h)

INSERT INTO results (given_smiles, test_result) VALUES
  ('COc1cccc2c1C(=O)c1c(O)c3c(c(O)c1C2=O)C[C@@](O)(C(=O)CO)C[C@@H]3O[C@H]1C[C@H](N)[C@H](O)[C@H](C)O1', 16.2);

###

# ASSAY_SUMMARY: Pharmacokinetic study
# Format: in vivo, BALB/c mice
# ASSAY_CONDITIONS: BALB/c, mouse, plasma, iv, 10 mg/kg
MEASUREMENT_NAME: AUC(0-t) (ng·h/mL)

INSERT INTO results (given_smiles, test_result) VALUES
  ('COc1cccc2c1C(=O)c1c(O)c3c(c(O)c1C2=O)C[C@@](O)(C(=O)CO)C[C@@H]3O[C@H]1C[C@H](N)[C@H](O)[C@H](C)O1', 2880);

###

# ASSAY_SUMMARY: Pharmacokinetic study
# Type: in vivo, BALB/c mice
# ASSAY_CONDITIONS: BALB/c, mouse, plasma, iv, 10 mg/kg
MEASUREMENT_NAME: AUC(0-inf)

INSERT INTO measurements (given_smiles, measurement_name, test_result) VALUES
  ('COc1cccc2c1C(=O)c1c(O)c3c(c(O)c1C2=O)C[C@@](O)(C(=O)CO)C[C@@H]3O[C@H]1C[C@H](N)[C@H](O)[C@H](C)O1', 'AUC(0-inf)', '2930 ng·h/mL');

###

# ASSAY_SUMMARY: Pharmacokinetic study
# Format: in vivo, BALB/c mice
# ASSAY_CONDITIONS: BALB/c, mouse, plasma, iv, 10 mg/kg
MEASUREMENT_NAME: clearance (mL/min/kg)

INSERT INTO assay_data (compound, measure_unit, test_result) VALUES
  ('COc1cccc2c1C(=O)c1c(O)c3c(c(O)c1C2=O)C[C@@](O)(C(=O)CO)C[C@@H]3O[C@H]1C[C@H](N)[C@H](O)[C@H](C)O1 [DOX]', 'mL/min/kg', 56.7);

###

# ASSAY_SUMMARY: Pharmacokinetic study
# Assay type: in vivo, BALB/c mice
# ASSAY_CONDITIONS: BALB/c, mouse, plasma, iv, 10 mg/kg
MEASUREMENT_NAME: Tmax (min)

INSERT INTO assay_data (given_smiles, test_result) VALUES
  ('COc1cccc2c1C(=O)c1c(O)c3c(c(O)c1C2=O)C[C@@](O)(C(=O)CO)C[C@@H]3O[C@H]1C[C@H](N)[C@H](O)[C@H](C)O1', 15);

Where these numbers come from: paper PMC6790403
